Subject of test: T1, human tissue factor pathway inhibitor (TFPI) (human, UniProt P10646 29-304, limits assumed)
T1 construct: bought; also called hTFPI; human TFPI
T1 sequence (looked up): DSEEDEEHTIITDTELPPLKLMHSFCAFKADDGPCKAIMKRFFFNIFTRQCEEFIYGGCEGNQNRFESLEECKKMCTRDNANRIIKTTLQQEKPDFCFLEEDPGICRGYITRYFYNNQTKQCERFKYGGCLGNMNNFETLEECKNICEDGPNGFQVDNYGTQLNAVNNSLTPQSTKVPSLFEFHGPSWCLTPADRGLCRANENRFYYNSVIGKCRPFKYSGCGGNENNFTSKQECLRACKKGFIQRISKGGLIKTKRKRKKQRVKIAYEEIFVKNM
Experimental protocol: competitive ELISA
Listing: variant/HC_K99L of selected binders
Give the value, in units of ratio, as a plain number.

>>> value_measured("2A8 HC S35D+S54F+S55R+K99L/LC D91L+V96W (Fab, V domains shown) VH: QVQLVESGGGLVQPGGSLRLSCAASGFTFRSYGMDWVRQAPGKGLEWVSSIRGFRSSTYYADSVKGRFTISRDNSKNTLYLQMNSLRAEDTAVYYCARLYRYWFDYWGQGTLVTVSS VL: DIELTQPPSVSVAPGQTARISCSGDNLRNYYAHWYQQKPGQAPVVVIYYDNNRPSGIPERFSGSNSGNTATLTISGTQAEDEADYYCQSWLDGVPWFGGGTKLTVLG")
14.9

Let us move to another entry and its variant/HC_K99L.
What value of variant/HC_K99L has been recorded for this entry: 2A8 HC S35D+K99L/LC Y48F+N51S+D91L+V96W (Fab, V domains shown) VH: QVQLVESGGGLVQPGGSLRLSCAASGFTFRSYGMDWVRQAPGKGLEWVSSIRGSSSSTYYADSVKGRFTISRDNSKNTLYLQMNSLRAEDTAVYYCARLYRYWFDYWGQGTLVTVSS VL: DIELTQPPSVSVAPGQTARISCSGDNLRNYYAHWYQQKPGQAPVVVIFYDSNRPSGIPERFSGSNSGNTATLTISGTQAEDEADYYCQSWLDGVPWFGGGTKLTVLG 19.9
